molecular target: Tyk2 (Homo sapiens (Human), UniProt P29597); experiment: Enzyme assay (Assay Example^a 1), Tyk2; assay type: biochemical; conditions: ATP 100 μM
Sequence (P29597 whole entry): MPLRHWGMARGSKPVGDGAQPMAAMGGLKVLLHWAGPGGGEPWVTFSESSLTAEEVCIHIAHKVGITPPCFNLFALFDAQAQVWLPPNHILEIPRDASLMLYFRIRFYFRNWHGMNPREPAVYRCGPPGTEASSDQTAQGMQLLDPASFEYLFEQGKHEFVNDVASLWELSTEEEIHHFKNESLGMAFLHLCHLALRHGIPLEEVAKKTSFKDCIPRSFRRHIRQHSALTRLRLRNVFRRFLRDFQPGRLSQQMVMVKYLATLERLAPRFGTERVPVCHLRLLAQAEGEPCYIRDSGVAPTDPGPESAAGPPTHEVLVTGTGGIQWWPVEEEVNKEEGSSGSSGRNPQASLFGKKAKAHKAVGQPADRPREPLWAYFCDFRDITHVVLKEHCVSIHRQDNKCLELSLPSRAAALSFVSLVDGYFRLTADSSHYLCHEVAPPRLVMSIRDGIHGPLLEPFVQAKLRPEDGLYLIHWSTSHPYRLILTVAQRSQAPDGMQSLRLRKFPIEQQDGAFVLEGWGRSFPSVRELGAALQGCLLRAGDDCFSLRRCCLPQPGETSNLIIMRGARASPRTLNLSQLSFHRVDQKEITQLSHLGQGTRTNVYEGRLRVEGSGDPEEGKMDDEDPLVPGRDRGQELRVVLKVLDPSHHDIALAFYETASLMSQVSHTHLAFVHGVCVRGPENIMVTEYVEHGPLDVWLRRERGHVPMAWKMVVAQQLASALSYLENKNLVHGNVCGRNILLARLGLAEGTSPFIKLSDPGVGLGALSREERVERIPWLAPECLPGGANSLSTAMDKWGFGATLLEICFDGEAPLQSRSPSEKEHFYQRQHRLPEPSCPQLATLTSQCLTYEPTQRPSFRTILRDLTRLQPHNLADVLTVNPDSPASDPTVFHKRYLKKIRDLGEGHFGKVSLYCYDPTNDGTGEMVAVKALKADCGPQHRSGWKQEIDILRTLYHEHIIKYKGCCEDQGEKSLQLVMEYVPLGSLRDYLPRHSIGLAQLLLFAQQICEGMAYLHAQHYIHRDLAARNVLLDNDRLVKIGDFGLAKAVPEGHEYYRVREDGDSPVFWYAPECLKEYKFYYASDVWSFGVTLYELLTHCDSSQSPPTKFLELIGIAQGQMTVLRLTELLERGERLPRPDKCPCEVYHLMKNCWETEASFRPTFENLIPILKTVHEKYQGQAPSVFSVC
Readings of IC50 for the listed molecules
TEST_READOUT: IC50 (µM)

- MOLECULE: "CN(CCC#N)C[C@H]1CC[C@H](c2nnn3cnc4[nH]ccc4c23)CC1"
  TEST_READOUT: "IC50"
  UNIT_INFO: "µM"
  RESULT_OPERATOR: "="
  ENDPOINT_VALUE: 0.36
- MOLECULE: "OC[C@@H]1CCCN1C[C@H]1CC[C@H](c2nnn3cnc4[nH]ccc4c23)CC1"
  TEST_READOUT: "IC50"
  UNIT_INFO: "µM"
  RESULT_OPERATOR: "="
  ENDPOINT_VALUE: 0.35
- MOLECULE: "NC[C@H]1CC[C@H](c2nnn3cnc4[nH]ccc4c23)CC1"
  TEST_READOUT: "IC50"
  UNIT_INFO: "µM"
  RESULT_OPERATOR: "="
  ENDPOINT_VALUE: 0.18
- MOLECULE: "O=C(CN[C@H]1CC[C@@H](c2nnn3cnc4[nH]ccc4c23)CC1)NCC(F)(F)F [384a]"
  TEST_READOUT: "IC50"
  UNIT_INFO: "µM"
  RESULT_OPERATOR: ">"
  ENDPOINT_VALUE: 1
- MOLECULE: "CN[C@H]1CC[C@H](c2nnn3cnc4[nH]ccc4c23)CC1 [398b]"
  TEST_READOUT: "IC50"
  UNIT_INFO: "µM"
  RESULT_OPERATOR: "="
  ENDPOINT_VALUE: 0.75
- MOLECULE: "CCNC[C@H]1CC[C@H](c2nnn3cnc4[nH]ccc4c23)CC1"
  TEST_READOUT: "IC50"
  UNIT_INFO: "µM"
  RESULT_OPERATOR: "="
  ENDPOINT_VALUE: 0.14
- MOLECULE: "FC(F)Oc1ccc(CN2CCC(c3nnn4cnc5[nH]ccc5c34)CC2)cc1"
  TEST_READOUT: "IC50"
  UNIT_INFO: "µM"
  RESULT_OPERATOR: ">"
  ENDPOINT_VALUE: 1
- MOLECULE: "CC(=O)N[C@H]1CCN(C[C@H]2CC[C@H](c3nnn4cnc5[nH]ccc5c34)CC2)C1"
  TEST_READOUT: "IC50"
  UNIT_INFO: "µM"
  RESULT_OPERATOR: ">"
  ENDPOINT_VALUE: 1
- MOLECULE: "OCCN1CCN(C[C@H]2CC[C@H](c3nnn4cnc5[nH]ccc5c34)CC2)CC1"
  TEST_READOUT: "IC50"
  UNIT_INFO: "µM"
  RESULT_OPERATOR: "="
  ENDPOINT_VALUE: 0.53
- MOLECULE: "CN(C)S(=O)(=O)C[C@H]1CC[C@H](c2nnn3cnc4[nH]ccc4c23)CC1"
  TEST_READOUT: "IC50"
  UNIT_INFO: "µM"
  RESULT_OPERATOR: "="
  ENDPOINT_VALUE: 0.17
- MOLECULE: "OC[C@H]1CCCN1C[C@H]1CC[C@H](c2nnn3cnc4[nH]ccc4c23)CC1"
  TEST_READOUT: "IC50"
  UNIT_INFO: "µM"
  RESULT_OPERATOR: ">"
  ENDPOINT_VALUE: 1
- MOLECULE: "O=C(C[C@H]1CC[C@@H](c2nnn3cnc4[nH]ccc4c23)CC1)NCC(F)(F)F [442a]"
  TEST_READOUT: "IC50"
  UNIT_INFO: "µM"
  RESULT_OPERATOR: "="
  ENDPOINT_VALUE: 0.79
- MOLECULE: "N#Cc1cc(NC[C@H]2CC[C@H](c3nnn4cnc5[nH]ccc5c34)CC2)ccc1F"
  TEST_READOUT: "IC50"
  UNIT_INFO: "µM"
  RESULT_OPERATOR: ">"
  ENDPOINT_VALUE: 1
- MOLECULE: "N#Cc1ccc(CN2CCC(c3nnn4cnc5[nH]ccc5c34)CC2)cc1C(F)(F)F"
  TEST_READOUT: "IC50"
  UNIT_INFO: "µM"
  RESULT_OPERATOR: "="
  ENDPOINT_VALUE: 0.79
- MOLECULE: "OC1(CNC[C@H]2CC[C@H](c3nnn4cnc5[nH]ccc5c34)CC2)CCCCC1"
  TEST_READOUT: "IC50"
  UNIT_INFO: "µM"
  RESULT_OPERATOR: "="
  ENDPOINT_VALUE: 0.51
- MOLECULE: "N#CCNC(=O)C[C@H]1CC[C@H](c2nnn3cnc4[nH]ccc4c23)CC1 [443b]"
  TEST_READOUT: "IC50"
  UNIT_INFO: "µM"
  RESULT_OPERATOR: ">"
  ENDPOINT_VALUE: 1
- MOLECULE: "CNC[C@H]1CC[C@H](c2nnn3cnc4[nH]ccc4c23)CC1"
  TEST_READOUT: "IC50"
  UNIT_INFO: "µM"
  RESULT_OPERATOR: "="
  ENDPOINT_VALUE: 0.21
